Give IC50 for every item shown.
Experiment: Cytotoxicity to PMA transformed THP1 cells
Format: cell-based
Conditions: human
Express the result in µg/mL but write the number alone.

Data point: C[C@H]1N[C@@H](CCCCCCCCCCC2=C[C@@H](CCCCCCCCCC[C@H]3CC[C@@H](O)[C@@H](C)N3)[C@@H]3CCCN3C2)CC[C@H]1O [Compound 6, juliprosopine] ; IC50 = 3.43

Data point: C[C@@H]1N[C@H](CCCCCCCCCCC2=C[C@@H](CCCCCCCCCC[C@@H]3CC[C@@H](O)[C@H](C)N3)[C@@H]3CCCN3C2)CC[C@H]1O [Compound 3, prosopilosine] ; IC50 = 2.33

---

Assay: Cytotoxicity to PMA transformed THP1 cells
Format: cell-based
Conditions: human, PMA transformed THP1 cells
readout name: IC90 (µg/mL)
Express the result in µg/mL but write the number alone.

Data point: "C[C@@H]1N[C@H](CCCCCCCCCCc2cc(CCCCCCCCCC[C@H]3CC[C@@H](O)[C@@H](C)N3)c[n+]3c2CCC3)CC[C@H]1O" ; IC90 = 19

Data point: C[C@@H]1[C@H](O)[C@@H](C)/C=C/C=C/C=C/C=C/C=C/C=C/C=C/[C@H](O[C@@H]2O[C@H](C)[C@@H](O)[C@H](N)[C@@H]2O)C[C@@H]2O[C@](O)(C[C@@H](O)C[C@@H](O)[C@H](O)CC[C@@H](O)C[C@@H](O)CC(=O)O[C@H]1C)C[C@H](O)[C@H]2C(=O)O [Amphotericin B, reference compound] ; IC90 = 8.05

---

Assay: Cytotoxicity to PMA transformed THP1 cells
Format: cell-based
Settings: human
Give IC90 for every item shown.
Express the result in µg/mL but write the number alone.

Data point: "C[C@@H]1N[C@H](CCCCCCCCCCC2=C[C@@H](CCCCCCCCCC[C@@H]3CC[C@@H](O)[C@H](C)N3)[C@@H]3CCCN3C2)CC[C@H]1O" ; IC90 = 3.89

Data point: "C[C@H]1N[C@@H](CCCCCCCCCCC2=C[C@@H](CCCCCCCCCC[C@H]3CC[C@@H](O)[C@@H](C)N3)[C@@H]3CCCN3C2)CC[C@H]1O" ; IC90 = 7.89

---

Assay: Cytotoxicity to PMA transformed THP1 cells
Format: cell-based
Settings: human, PMA transformed THP1 cells
readout name: IC50

Data point: C[C@@H]1N[C@H](CCCCCCCCCCc2cc(CCCCCCCCCC[C@@H]3CC[C@H](O)[C@@H](C)N3)c3[n+](c2)CCC3)CC[C@H]1O [Compound 2, prosopilosidine] ; IC50 = 9.49 µg/mL

Data point: C[C@@H]1N[C@H](CCCCCCCCCCc2cc(CCCCCCCCCC[C@H]3CC[C@@H](O)[C@@H](C)N3)c[n+]3c2CCC3)CC[C@H]1O [Compound 5, isoprosopilosidine] ; IC50 = 7.92 µg/mL

Data point: N=C(N)c1ccc(OCCCCCOc2ccc(C(=N)N)cc2)cc1 [Pentamidine, reference compound] ; IC50 = > 20 µg/mL

Data point: C[C@@H]1[C@H](O)[C@@H](C)/C=C/C=C/C=C/C=C/C=C/C=C/C=C/[C@H](O[C@@H]2O[C@H](C)[C@@H](O)[C@H](N)[C@@H]2O)C[C@@H]2O[C@](O)(C[C@@H](O)C[C@@H](O)[C@H](O)CC[C@@H](O)C[C@@H](O)CC(=O)O[C@H]1C)C[C@H](O)[C@H]2C(=O)O [Amphotericin B, reference compound] ; IC50 = 3.34 µg/mL
